Every entry's value here was drawn from paper PMC10410440.

assay: Tissue distribution of SHR9146 in mice after oral gavage of 40 mg/kg; type: in vivo, ICR mice; conditions: male, ICR, mouse, thyroid gland, po, 40 mg/kg, male, 6 h, 40 mg/kg oral gavage, Mean (n=3); read-out: SHR9146 concentration in thyroid gland
MEASURE_NAME: concentration at 6 h (ng/g)
One number for each entry, in ng/g.

Lab note: OCCn1cc(-c2ccc(N3CCC([C@H]4c5c(F)cccc5-c5cncn54)CC3)cc2)cn1 gave concentration at 6 h of 63

* * *

experiment: Plasma pharmacokinetics of SHR9146 in mice (LC-MS/MS, non-compartmental analysis); format: in vivo, ICR mice; details: female, ICR, mouse, plasma, po, 20 mg/kg, 20 mg/kg i.g. bid, 7 days (7th-day steady state); female mice; plasma; read-out: Tmax
MEASURE_NAME: Tmax (min)
Answers are plain numbers, in min.

Lab note: OCCn1cc(-c2ccc(N3CCC([C@H]4c5c(F)cccc5-c5cncn54)CC3)cc2)cn1 gave Tmax of 50
